# testName: xn = mol fraction of the nth substance listed
# testParameters: 318.15 K; 101 kPa; x2 = 0.7
Let's look at some compounds and their measured viscosity.

- compound: "CCCCCCCCO + CCCCO"
  viscosity [mPa·s]: 2.164
- compound: "CCCCCCCCO + CO"
  viscosity [mPa·s]: 1.239
- compound: "CCCCCCCCO + CCCO"
  viscosity [mPa·s]: 1.936
- compound: "CCCCCCCCO + CCO"
  viscosity [mPa·s]: 1.532

----------
# testName: xn = mol fraction of the nth substance listed
# testParameters: 298.15 K; 101 kPa; x2 = 0.2
Let's look at some compounds and their measured log10(viscosity).
metricName: log10(viscosity) (log10 of the value in mPa·s)

- compound: "CCCCCCCCO + CCCCO"
  log10(viscosity): 0.79
- compound: "CC#N + CO"
  log10(viscosity): -0.48
- compound: "CCCCCCCCO + CO"
  log10(viscosity): 0.74
- compound: "CCCCCCCCO + CCO"
  log10(viscosity): 0.75
- compound: "CCCCCCCCO + CCCO"
  log10(viscosity): 0.78

----------
# testName: xn = mol fraction of the nth substance listed
# testParameters: 298.15 K; 101 kPa; x2 = 0.05
± gives the uncertainty stated by the source.
Let's look at some compounds and their measured viscosity.

- compound: "CCCCCCCCO + CO"
  viscosity: "6.856 ± 0.066 mPa·s"
- compound: "CCCCCCCCO + CCCO"
  viscosity: "7.025 ± 0.069 mPa·s"
- compound: "CCCCCCCCO + CCO"
  viscosity: "6.909 ± 0.067 mPa·s"
- compound: "CCCCCCCCO + CCCCO"
  viscosity: "7.06 ± 0.068 mPa·s"

----------
# testName: xn = mol fraction of the nth substance listed
# testParameters: 318.15 K; 101 kPa; x2 = 0.2
Let's look at some compounds and their measured viscosity.
metricName: viscosity (mPa·s)

- compound: "CCCCCCCCO + CCCO"
  observedValue: 3.261
- compound: "CCCCCCCCO + CCCCO"
  observedValue: 3.345
- compound: "CCCCCCCCO + CCO"
  observedValue: 3.154
- compound: "CCCCCCCCO + CO"
  observedValue: 3.065

----------
# testName: xn = mol fraction of the nth substance listed
# testParameters: 318.15 K; 101 kPa; x2 = 0.85

- compound: "CCCCCCCCO + CO"
  unitsText: "mPa·s"
  viscosity: 0.787
- compound: "CCCCCCCCO + CCO"
  unitsText: "mPa·s"
  viscosity: 1.121
- compound: "CCCCCCCCO + CCCO"
  unitsText: "mPa·s"
  viscosity: 1.565
- compound: "CCCCCCCCO + CCCCO"
  unitsText: "mPa·s"
  viscosity: 1.845

----------
# testName: xn = mol fraction of the nth substance listed
# testParameters: 318.15 K; 101 kPa; x2 = 0.8

- compound: "CCCCCCCCO + CCCO"
  viscosity, mPa·s: 1.687
- compound: "CCCCCCCCO + CO"
  viscosity, mPa·s: 0.9299
- compound: "CCCCCCCCO + CCCCO"
  viscosity, mPa·s: 1.948
- compound: "CCCCCCCCO + CCO"
  viscosity, mPa·s: 1.254

----------
Let's look at some compounds and their measured viscosity.
# testName: xn = mol fraction of the nth substance listed
# testParameters: 308.15 K; 101 kPa; x2 = 0.3

- compound: "CCCCCCCCO + CCCO"
  unitsText: "mPa·s"
  viscosity: 3.824
- compound: "CCCCCCCCO + CCO"
  unitsText: "mPa·s"
  viscosity: 3.69
- compound: "CCCCCCCCO + CCCCO"
  unitsText: "mPa·s"
  viscosity: 4.129
- compound: "CCCCCCCCO + CO"
  unitsText: "mPa·s"
  viscosity: 3.464

----------
# testName: xn = mol fraction of the nth substance listed
# testParameters: 318.15 K; 101 kPa; x2 = 0.6

- compound: "CCCCCCCCO + CCCO"
  viscosity / mPa·s: 2.191
- compound: "CCCCCCCCO + CCO"
  viscosity / mPa·s: 1.828
- compound: "CCCCCCCCO + CO"
  viscosity / mPa·s: 1.573
- compound: "CCCCCCCCO + CCCCO"
  viscosity / mPa·s: 2.388

----------
# testName: xn = mol fraction of the nth substance listed
# testParameters: 298.15 K; 101 kPa; x2 = 0.7
± gives the uncertainty stated by the source.

- molecule: "CCCCCCCCO + CCCO"
  viscosity: "3.249 ± 0.029 mPa·s"
- molecule: "CCCCCCCCO + CCO"
  viscosity: "2.398 ± 0.021 mPa·s"
- molecule: "CCCCCCCCO + CO"
  viscosity: "1.823 ± 0.016 mPa·s"
- molecule: "CCCCCCCCO + CCCCO"
  viscosity: "3.692 ± 0.034 mPa·s"

----------
Let's look at some compounds and their measured viscosity.
# testName: xn = mol fraction of the nth substance listed
# testParameters: 308.15 K; 101 kPa; x2 = 0.85
metricName: viscosity (mPa·s)

- compound: "CCCCCCCCO + CCO"
  unitsText: "mPa·s"
  observedValue: 1.364
- compound: "CCCCCCCCO + CCCO"
  unitsText: "mPa·s"
  observedValue: 1.962
- compound: "CCCCCCCCO + CCCCO"
  unitsText: "mPa·s"
  observedValue: 2.36
- compound: "CCCCCCCCO + CO"
  unitsText: "mPa·s"
  observedValue: 0.9227

----------
# testName: xn = mol fraction of the nth substance listed
# testParameters: 308.15 K; 101 kPa; x2 = 0.4
Let's look at some compounds and their measured viscosity.

- compound: "CCCCCCCCO + CCO"
  unitsText: "mPa·s"
  viscosity: 3.198
- compound: "CCCCCCCCO + CCCCO"
  unitsText: "mPa·s"
  viscosity: 3.779
- compound: "CCCCCCCCO + CCCO"
  unitsText: "mPa·s"
  viscosity: 3.507
- compound: "CCCCCCCCO + CO"
  unitsText: "mPa·s"
  viscosity: 2.921

----------
Let's look at some compounds and their measured viscosity.
# testName: xn = mol fraction of the nth substance listed
# testParameters: 298.15 K; 101 kPa; x2 = 0.1
± gives the uncertainty stated by the source.
metricName: viscosity

- compound: "CCCCCCCCO + CO"
  metricName: "viscosity"
  observedValue: "6.367 ± 0.061 mPa·s"
- compound: "CCCCCCCCO + CCCO"
  metricName: "viscosity"
  observedValue: "6.694 ± 0.066 mPa·s"
- compound: "CCCCCCCCO + CCCCO"
  metricName: "viscosity"
  observedValue: "6.764 ± 0.065 mPa·s"
- compound: "CCCCCCCCO + CCO"
  metricName: "viscosity"
  observedValue: "6.475 ± 0.062 mPa·s"

----------
# testName: xn = mol fraction of the nth substance listed
# testParameters: 298.15 K; 101 kPa; x2 = 0.9
± gives the uncertainty stated by the source.
metricName: viscosity

- compound: "CCCCCCCCO + CO"
  metricName: "viscosity"
  observedValue: "0.8845 ± 0.0077 mPa·s"
- compound: "CCCCCCCCO + CCO"
  metricName: "viscosity"
  observedValue: "1.453 ± 0.013 mPa·s"
- compound: "CCCCCCCCO + Cc1ccccc1"
  metricName: "viscosity"
  observedValue: "0.674 ± 0.005 mPa·s"
- compound: "CCCCCCCCO + CCCO"
  metricName: "viscosity"
  observedValue: "2.294 ± 0.021 mPa·s"
- compound: "CC#N + CO"
  metricName: "viscosity"
  observedValue: "0.48 ± 0.004 mPa·s"
- compound: "CCCCCCCCO + CCCCO"
  metricName: "viscosity"
  observedValue: "2.875 ± 0.026 mPa·s"

----------
# testName: xn = mol fraction of the nth substance listed
# testParameters: 318.15 K; 101 kPa; x2 = 0.35
metricName: viscosity (mPa·s)

- compound: "CCCCCCCCO + CO"
  observedValue: 2.485
- compound: "CCCCCCCCO + CCO"
  observedValue: 2.634
- compound: "CCCCCCCCO + CCCO"
  observedValue: 2.847
- compound: "CCCCCCCCO + CCCCO"
  observedValue: 2.975

----------
Let's look at some compounds and their measured viscosity.
# testName: xn = mol fraction of the nth substance listed
# testParameters: 308.15 K; 101 kPa; x2 = 0.9

- compound: "CCCCCCCCO + Cc1ccccc1"
  viscosity / mPa·s: 0.61
- compound: "CCCCCCCCO + CCO"
  viscosity / mPa·s: 1.199
- compound: "CCCCCCCCO + CCCCO"
  viscosity / mPa·s: 2.223
- compound: "CCCCCCCCO + CO"
  viscosity / mPa·s: 0.7578
- compound: "CCCCCCCCO + CCCO"
  viscosity / mPa·s: 1.782

Measured values drawn from the CheMixHub viscosity set for this set.
